biological target: human recombinant adrenergic α2A receptor (Homo sapiens, UniProt P08913); construct: expressed in transfected cells; host or cells: insect Sf9 cells; assay: Radioligand binding, adrenergic α2A ([3H]MK-912); conditions: read-out: Percentage inhibition of ligand binding, Adrenergic α2A (0.1 μM), compound at 0.1 μM; [3H]MK-912; repeat datapoints each shown
Sequence (P08913 whole entry): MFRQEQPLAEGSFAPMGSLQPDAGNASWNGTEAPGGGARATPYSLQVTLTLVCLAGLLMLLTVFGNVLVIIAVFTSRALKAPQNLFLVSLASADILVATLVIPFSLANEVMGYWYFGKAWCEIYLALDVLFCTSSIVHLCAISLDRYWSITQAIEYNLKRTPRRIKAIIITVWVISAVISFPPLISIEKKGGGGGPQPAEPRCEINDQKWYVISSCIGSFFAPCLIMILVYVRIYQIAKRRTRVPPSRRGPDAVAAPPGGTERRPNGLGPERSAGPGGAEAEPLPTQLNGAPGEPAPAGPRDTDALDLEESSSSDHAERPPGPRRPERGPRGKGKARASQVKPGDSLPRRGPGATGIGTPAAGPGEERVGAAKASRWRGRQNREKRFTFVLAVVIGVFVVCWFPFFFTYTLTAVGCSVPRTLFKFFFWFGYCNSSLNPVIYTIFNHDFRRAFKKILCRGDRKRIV
// reported inhibition at 0.1 µM for each item listed
property: inhibition at 0.1 µM

[[record]]
compound = "C/C(=C\\n1c2c(c3cc(Cl)ccc31)CCN(C)CC2)c1ccc(Cl)cc1Cl [compound 229]"
assayed_target = "human recombinant adrenergic α2A receptor (Homo sapiens, UniProt P08913)"
property = "inhibition at 0.1 µM"
test_result = "53%"

[[record]]
compound = "Cc1ccc2c(c1)c1c(n2CCC2CCCCC2)CCN(C)C1 [compound 205]"
assayed_target = "human recombinant adrenergic α2A receptor (Homo sapiens, UniProt P08913)"
property = "inhibition at 0.1 µM"
test_result = "69%"

[[record]]
compound = "Cc1ccc2c(c1)c1c(n2CC(OCC(=O)O)c2ccncc2)CCN2CCCC12 (stereo not drawn) [V-15]"
assayed_target = "human recombinant adrenergic α2A receptor (Homo sapiens, UniProt P08913)"
property = "inhibition at 0.1 µM"
test_result = "7%"

[[record]]
compound = "Cc1ccc2c(c1)c1c(n2C(C)C(O)c2ccncc2)CCN(C)C1 (stereo not drawn) [127b]"
assayed_target = "human recombinant adrenergic α2A receptor (Homo sapiens, UniProt P08913)"
property = "inhibition at 0.1 µM"
test_result = "4%"

[[record]]
compound = "CN1CCc2c(c3ccncc3n2CC(C)(O)c2cccnc2)C1 (stereo not drawn) [II-129]"
assayed_target = "human recombinant adrenergic α2A receptor (Homo sapiens, UniProt P08913)"
property = "inhibition at 0.1 µM"
test_result = "12%"

[[record]]
compound = "Cc1ccc2c(c1)c1c(n2CC(N=[N+]=[N-])c2cnccn2)CCN2CCCC12 (stereo not drawn) [II-261]"
assayed_target = "human recombinant adrenergic α2A receptor (Homo sapiens, UniProt P08913)"
property = "inhibition at 0.1 µM"
test_result = "70%"

[[record]]
compound = "C/C(=C\\n1c2c(c3cc(C)cnc31)CN(C)CC2)c1ccncc1 [compound 124]"
assayed_target = "human recombinant adrenergic α2A receptor (Homo sapiens, UniProt P08913)"
property = "inhibition at 0.1 µM"
test_result = "-2%"

[[record]]
compound = "C/C(=C\\n1c2c(c3cc(C)ccc31)CNCC2)c1ccncc1 [compound 103]"
assayed_target = "human recombinant adrenergic α2A receptor (Homo sapiens, UniProt P08913)"
property = "inhibition at 0.1 µM"
test_result = "19%"

[[record]]
compound = "CN1CCc2c(c3ccccc3n2CC(C)(O)c2ccncc2)C1 (stereo not drawn) [II-171]"
assayed_target = "human recombinant adrenergic α2A receptor (Homo sapiens, UniProt P08913)"
property = "inhibition at 0.1 µM"
test_result = "96%"


The reported numbers originate from patent US8791132B2.
